Overview of recorded pEC50 for various compounds
# System: Lu1
# PROTOCOL: Cytotoxicity against human Lu1 cells by SRB assay
# Assay type: functional
# SETUP_CONDITIONS: read-out: ED50 (the source's name)
API: returns pEC50 as number; meaning -log10 of concentration in mol/L.

# CHEMICAL_STRING, ASSAY_TARGET, pEC50
records = [
    ("C=C1CC[C@@H]2[C@](C)(CO[Si](C)(C)C(C)(C)C)[C@H](OC(C)=O)CC[C@@]2(C)[C@@H]1C/C=C1/C(=O)OC[C@H]1OC(C)=O", "Lu1", 5.53),
]

**Q:** Item C=C1CC[C@@H]2[C@](C)(COC(c3ccccc3)(c3ccccc3)c3ccccc3)[C@H](OC(C)=O)CC[C@@]2(C)[C@@H]1C/C=C1/C(=O)OC[C@H]1OC(C)=O : provide pEC50
**A:** 5.08

**Q:** Item C=C1CC[C@@H]2[C@](C)(COC(C)=O)[C@H](O)CC[C@@]2(C)[C@@H]1C/C=C1/C(=O)OC[C@H]1O : provide pEC50
**A:** 4.85

----------
# Test system: Col2
# PROTOCOL: Cytotoxicity against human Col2 cells by SRB assay
# Format: functional
# SETUP_CONDITIONS: read-out: ED50 (the source's name)
Overview of recorded pEC50 for various compounds
API: returns pEC50 as number; meaning -log10 of concentration in mol/L.

As a guide, the following entries are already answered.
# COMPOUND, pEC50
measured = [
    ("C=C1CC[C@@H]2[C@](C)(CO)[C@H](O)CC[C@@]2(C)[C@@H]1C/C=C1/C(=O)OC[C@H]1O [ANDROGRAPHOLIDE]", 4.87),
    ("C=C1CC[C@@H]2[C@](C)(CO)[C@H](OC(C)=O)CC[C@@]2(C)[C@@H]1C/C=C1/C(=O)OC[C@H]1OC(C)=O", 4.99),
    ("C=C1CC[C@@H]2[C@](C)(CO[Si](C(C)C)(C(C)C)C(C)C)[C@H](OC(C)=O)CC[C@@]2(C)[C@@H]1C/C=C1/C(=O)OC[C@H]1OC(C)=O", 4.87),
    ("C=C1CC[C@@H]2[C@](C)(CO[Si](c3ccccc3)(c3ccccc3)C(C)(C)C)[C@H](OC(C)=O)CC[C@@]2(C)[C@@H]1C/C=C1/C(=O)OC[C@H]1OC(C)=O", 4.91),
]

Could you now look at the following compound, please?
**Q:** Item C=C1CC[C@@H]2[C@](C)(COC(C)=O)[C@H](O)CC[C@@]2(C)[C@@H]1C/C=C1/C(=O)OC[C@H]1O : provide pEC50
**A:** 4.89

----------
Overview of recorded EC50 for various molecules
# Tested on: Lu1
# PROTOCOL: Cytotoxicity against human Lu1 cells by SRB assay
# Assay type: functional
# SETUP_CONDITIONS: read-out: ED50 (the source's name)
Dear colleague, please return just the value in µM, with no unit written.

As a guide, the following entries are already answered.
# MOLECULE, VALUE_OBSERVED
records = [
    ("Cc1c2ccncc2c(C)c2c1[nH]c1ccccc12", 1.62),
    ("C=C1CC[C@@H]2[C@](C)(CO[Si](c3ccccc3)(c3ccccc3)C(C)(C)C)[C@H](OC(C)=O)CC[C@@]2(C)[C@@H]1C/C=C1/C(=O)OC[C@H]1O", 10.9),
    ("C=C1CC[C@@H]2[C@](C)(CO[Si](C(C)C)(C(C)C)C(C)C)[C@H](O)CC[C@@]2(C)[C@@H]1C/C=C1/C(=O)OC[C@H]1O", 3.01),
    ("C=C1CC[C@@H]2[C@](C)(COC(C)=O)[C@H](OC(C)=O)CC[C@@]2(C)[C@@H]1C/C=C1/C(=O)OC[C@H]1O", 34.7),
    ("C=C1CC[C@@H]2[C@](C)(CO)[C@H](OC(C)=O)CC[C@@]2(C)[C@@H]1C/C=C1/C(=O)OC[C@H]1OC(C)=O", 8.75),
]

**Q:** Item C=C1CC[C@@H]2[C@](C)(CO[Si](C)(C)C(C)(C)C)[C@H](OC(C)=O)CC[C@@]2(C)[C@@H]1C/C=C1/C(=O)OC[C@H]1O : provide EC50
**A:** 9.62

**Q:** Item C=C1CC[C@@H]2[C@](C)(CO)[C@H](O)CC[C@@]2(C)[C@@H]1C/C=C1/C(=O)OC[C@H]1O [ANDROGRAPHOLIDE] : provide EC50
**A:** 13
